Origin of measurements: the Human Domainome abundance scans (Beltran et al. 2025)

B1: Double-stranded RNA-binding protein Staufen homolog 1, residues 183 to 249; numbered along this chain, O95793 (parent)
chain: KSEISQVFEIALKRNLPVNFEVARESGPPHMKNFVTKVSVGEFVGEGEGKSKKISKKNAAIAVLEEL

# Variants of: B1
# assay.procedure: abundance fitness (aPCA) (normalised: wild type 0, dead -1); higher = more abundant; growth selection in yeast, the domain comes from the species named
# details: Homo sapiens
Label Not met if abundance fitness falls below -0.1; label Met in every other case.

**Q:** Does the variant G49Y have recorded abundance fitness that is -0.1 or more?
**A:** Not met

**Q:** Does the variant V22L have recorded abundance fitness that is -0.1 or more?
**A:** Met

**Q:** Does the variant G47S have recorded abundance fitness that is -0.1 or more?
**A:** Not met

**Q:** Does the variant F43E have recorded abundance fitness that is -0.1 or more?
**A:** Not met

**Q:** Does the variant V38P have recorded abundance fitness that is -0.1 or more?
**A:** Not met

**Q:** Does the variant I61Q have recorded abundance fitness that is -0.1 or more?
**A:** Not met

**Q:** Does the variant M31E have recorded abundance fitness that is -0.1 or more?
**A:** Met

**Q:** Does the variant N19T have recorded abundance fitness that is -0.1 or more?
**A:** Met

**Q:** Does the variant K57V have recorded abundance fitness that is -0.1 or more?
**A:** Not met

**Q:** Does the variant N19H have recorded abundance fitness that is -0.1 or more?
**A:** Met
